experiment: Protein binding in human plasma; type: ADME, cell-free; conditions: read-out: PPB (converted)
Measure: fraction unbound
The answer should be written as a number, with no unit following it.

For this compound ( CN(C)CCNC(=O)[C@H]1c2ccccc2C[C@@H]1NC(=O)c1cc2ccccc2[nH]1 ), measured fraction unbound is 0.88

###

target: Mu-type opioid receptor (Homo sapiens, UniProt P35372); assay: Agonist activity at mu1-opioid receptor (unknown origin)
Sequence (P35372 whole entry): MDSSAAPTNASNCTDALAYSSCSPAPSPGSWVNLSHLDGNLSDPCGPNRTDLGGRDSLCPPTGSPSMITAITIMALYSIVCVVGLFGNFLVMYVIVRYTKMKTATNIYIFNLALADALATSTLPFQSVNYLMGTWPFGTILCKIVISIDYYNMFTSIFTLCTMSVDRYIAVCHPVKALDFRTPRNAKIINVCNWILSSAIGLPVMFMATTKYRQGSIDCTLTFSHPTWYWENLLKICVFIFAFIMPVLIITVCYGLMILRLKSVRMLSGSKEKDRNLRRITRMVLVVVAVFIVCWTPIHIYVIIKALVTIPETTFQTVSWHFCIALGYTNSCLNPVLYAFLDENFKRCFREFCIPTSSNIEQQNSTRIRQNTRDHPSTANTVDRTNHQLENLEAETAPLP
Measure: IC50
Report the figure along with its unit, number first.

IC50 of CN(C)CCNC(=O)[C@H]1c2ccccc2C[C@@H]1NC(=O)c1cc2ccccc2[nH]1 , assay on Mu-type opioid receptor (Homo sapiens, UniProt P35372), is 79.4 nM
